All values here come from the supplement of paper PMC7125110.

B1: glmS ribozyme (parent)
chain: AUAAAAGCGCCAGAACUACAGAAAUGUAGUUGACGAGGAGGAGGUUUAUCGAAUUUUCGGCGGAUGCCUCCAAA

variants of: B1; experiment: self-cleavage kobs at 160 uM GlcN6P; higher = faster cleavage; RNA array; conditions: with glucosamine-6-phosphate
Variants at the floor of the assay were thinned out.
# self-cleavage kobs at 160 uM GlcN6P values compiled below
Only the number, expressed in s⁻¹, is required.

Form: variant = U30A U54C C71U ; self-cleavage kobs at 160 uM GlcN6P = 0.000251
